These data points were gathered from PubChem BioAssay.

# Method notes: inhibitors of poly I:C-induced TLR3 signaling, primary screen, cell-based, poly I:C stimulus, luciferase, 10K MLSCN set (AID 602277)
# Test context: HEK293-TLR3 RL24 IRF3 luciferase reporter, at 10 µM
Calls of active or inactive are those of the source.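 The calls were made as follows: active = inhibition of the reporter signal at or above 50%; inactive = inhibition below 50%.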
Labels: true (1) (active), false (0) (inactive)

• CC1CCN(Cc2ccc(-c3nn[nH]n3)cc2)CC1 = false (0)
• CCOC(=O)c1ccc(N2C(=O)CC(N(C)CCc3ccc(OC)c(OC)c3)C2=O)cc1 (configuration not stated) = false (0)
• O=C(Nc1ncc(Br)s1)C1CCCN1S(=O)(=O)c1cccc2cccnc12 (configuration not stated) = false (0)
• CCn1c(C(=O)N2CCCC(C(=O)NCCCc3ccccc3)C2)cc2sccc21 (configuration not stated) = false (0)
• Cc1cc(NC(=O)CSc2nccn2-c2ccc(F)cc2)no1 = false (0)
• O=C(Nc1ccccc1-c1ccccc1)NC1CCN(C(=O)N2CCOCC2)CC1 = false (0)
• CCOC(=O)c1sc2nc(N3CCCC3)c3c(c2c1N)CC(C)(C)OC3 = false (0)
• COc1cc(C(O)c2nc3ccccc3n2C)cc(OC)c1OC (configuration not stated) = false (0)
• CC1=C(C(=O)OCC(C)C)C(c2cc3c(cc2Br)OCO3)NC(=O)N1C (configuration not stated) = false (0)
• CC(C)c1nnc(SCC(=O)NCc2ccco2)n1C = true (1)
• CCOC(=O)N1CCN(C(=O)c2ccc3c(SCC(=O)O)c4c(nc3c2)CCCC4)CC1 = false (0)
• O=S(=O)(c1ccccc1)N1CCN(S(=O)(=O)c2ccccc2)C1 = false (0)
• O=c1ccc(S(=O)(=O)N2CCC(Cc3ccccc3)CC2)c[nH]1 = false (0)
• CCc1ccccc1NC(=O)CCc1nc(-c2ccc(C)cc2)no1 = false (0)
• CC1(C)OC(=O)C(=CNC(CCC(N)=O)C(=O)O)C(=O)O1 (configuration not stated) = false (0)
• CCn1c(CSc2nc(C)cc(C)n2)nnc1SCC(=O)Nc1ccccc1 = false (0)
• CCC(Sc1nc(-c2ccccc2)c(C#N)c(=O)[nH]1)C(=O)Nc1cc(C)on1 (configuration not stated) = false (0)
• CC(O)c1cc2c(cc1NC(=O)c1cnn3c1NC(c1ccco1)CC3C(F)(F)F)OCO2 (configuration not stated) = false (0)
• CC(C)OC(=O)CSc1nc2cccnc2n1C1CCCCC1 = false (0)
• COc1ccc(N2C(N)=C(C#N)C(c3cccnc3)C3=C2CC(C)(C)CC3=O)cc1 (configuration not stated) = false (0)
• Cc1cccc(OCC(=O)N(Cc2cccs2)C2CCS(=O)(=O)C2)c1C (configuration not stated) = false (0)
• CCOc1ccccc1C(=O)N1CCN(c2cccc(Cl)c2)CC1 = true (1)

====

Listing: fluorescence slope of selected compounds
# Target or system: Voltage-gated potassium channel subunit beta-2 (Rattus norvegicus) (UniProt P62483)
# Sequence (P62483 whole entry, looked up): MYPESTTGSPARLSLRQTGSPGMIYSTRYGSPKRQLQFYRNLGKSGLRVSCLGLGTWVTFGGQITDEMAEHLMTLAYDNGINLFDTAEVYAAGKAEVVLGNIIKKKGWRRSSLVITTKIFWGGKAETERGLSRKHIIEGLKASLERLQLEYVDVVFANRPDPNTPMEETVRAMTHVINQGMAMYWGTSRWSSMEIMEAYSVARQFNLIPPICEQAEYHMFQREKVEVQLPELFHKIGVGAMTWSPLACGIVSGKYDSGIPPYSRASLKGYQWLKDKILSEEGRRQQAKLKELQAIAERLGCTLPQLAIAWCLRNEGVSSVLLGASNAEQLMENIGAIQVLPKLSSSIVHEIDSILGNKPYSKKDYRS
# Method notes: KvBeta enzyme negative modulators, primary screen, biochemical, NADPH fluorescence (AID 622);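 also: slope of raw intensity against log time taken from 70 to 1610 s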
# Test context: recombinant KvBeta, 4-cyanobenzaldehyde reduction, at 10 µM, stronger effect = higher value
Parameter: fluorescence slope

* COc1cc(OC)cc(-c2nc(N)n[nH]2)c1 | -0.411
* CSc1cc(C)nc(N(C)C(C)=O)n1 | -0.421
* CCOC(=O)c1ccc(NC(=O)CSc2n[nH]c(-c3ccncc3)n2)cc1 | -0.592
* CCOC(=O)c1c(C)oc2c1c(C(c1ccncc1)N1CCOCC1)c(O)c1ccccc12 (stereo unspecified) | -0.594
* COc1ccc(N2CCN(CCCNS(=O)(=O)c3c(C)noc3/C=C/N(C)C)CC2)cc1 | -0.54
* COc1ccccc1N1CCN(CC(O)c2ccc3cc[nH]c3c2)CC1 (stereo unspecified) | -0.54
